B1: TPR t1 (parent)
chain: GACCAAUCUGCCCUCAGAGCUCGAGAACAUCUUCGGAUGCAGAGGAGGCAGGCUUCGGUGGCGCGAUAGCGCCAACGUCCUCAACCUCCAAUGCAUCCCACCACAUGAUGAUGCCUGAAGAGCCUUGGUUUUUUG

Variants of: B1
procedure summary: polymerase ribozyme fitness, log enrichment relative to wild type (log ratio); higher = more active; in vitro selection for triplet polymerase activity
variants and their reported polymerase ribozyme fitness (log ratio)

Past entries and their recorded results:
C4U C11A C13U A16C U30G C49A C64G C102G U112G C115A : -7.83
A29G C86A U112A C123G : 0.207
G45A C98U : -1.75
C8G C13G A16U C49A C70U U129C : -1.75
A2G C28U C70U G110U : -3.19
G69A U81A C82U A119G G122U U125A U129C : -5.05
C4U U112C : 1.38
C3A C12U : -0.986
G63U U130C : -1.84
U78A C79A A95C : -4.32

Query: # input variant: C34G A46U ; wanted: its polymerase ribozyme fitness (log ratio)
Result: -6.06

Query: # input variant: C4U G35U C62U C98A C123G ; wanted: its polymerase ribozyme fitness (log ratio)
Result: -2.75

Query: # input variant: A18C G47A ; wanted: its polymerase ribozyme fitness (log ratio)
Result: -2.19
